# ASSAYED TARGET: rFhGST-S1 (recombinant Fasciola hepatica Sigma class glutathione transferase) (Fasciola hepatica)
# Sequence (Q06A71 1-211): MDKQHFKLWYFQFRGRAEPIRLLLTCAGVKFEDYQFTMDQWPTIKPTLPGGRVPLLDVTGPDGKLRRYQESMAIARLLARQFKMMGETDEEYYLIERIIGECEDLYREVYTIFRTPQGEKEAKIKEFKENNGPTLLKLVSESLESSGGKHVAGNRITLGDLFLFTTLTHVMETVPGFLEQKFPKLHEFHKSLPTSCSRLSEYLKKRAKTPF
# EXPERIMENT NOTES: inhibition of GSH-CDNB conjugation, spectrophotometric, graphical IC50
ENDPOINT: IC50
Please don't drop the unit; write it after the number.

Supply recorded IC50 for "C[C@H](CCC(=O)O)[C@H]1CC[C@H]2[C@@H]3[C@H](O)C[C@@H]4C[C@H](O)CC[C@]4(C)[C@H]3CC[C@]12C" here.
64 µM

Note down IC50 recorded for "C[C@H](CCC(=O)O)[C@H]1CC[C@H]2[C@@H]3CC[C@@H]4C[C@H](O)CC[C@]4(C)[C@H]3C[C@H](O)[C@]12C"
223 µM

Answer with the recorded IC50 of "C[C@H](CCC(=O)O)[C@H]1CC[C@H]2[C@@H]3[C@H](O)C[C@@H]4C[C@H](O)CC[C@]4(C)[C@H]3C[C@H](O)[C@]12C" only.
302 µM

Answer with the recorded IC50 of C[S+]([O-])c1nc2cc(Cl)c(Oc3cccc(Cl)c3Cl)cc2[nH]1 (stereo not shown) [TCBZ SO, sulphoxide derivative of Triclabendazole] only.
57 µM
